experiment: yeast display, Sf9 membrane polyspecificity reagent, FACS + sequencing; frameworks hold sequencing errors
Assay Readout: polyreactivity (PSR sort gate)

// worked examples, polyreactivity (PSR sort gate) included
[[record]]
construct_sequence = "QVQLVESGGGLVQAGGSLRLSCAASGGIVGYYAMGWYRQAPGKERELVAAISWSGGSTYYADSVKGRFTISRDNAKNTVYLQMNSLKPEDTAVYYCAASDSYGYDYWGQGTQVTVSS"
meas_value = "high polyreactivity"

[[record]]
construct_sequence = "QVQLVESGGGLVQAGGSLRLSCAASGSIFSAYAIGWYRQAPGKERELDAAITKSSVTYYADSVKGRFTISRDNAKNSVYLHMNSLKPEDTAVYYCAAASGGTVVGEVDYWGQGTQVTVSS"
meas_value = "low polyreactivity"

[[record]]
construct_sequence = "QVQLQESSGGLVQAGGSLRMSCAASGTIFHFHIMGWYRQAPGKEREFVAAISYGTSTYYADSVKGRFTISRDNAKNTVYLQMNSQKPEDTGVYYCAVYDYLEVYCWYWGQGTQVTVSS"
meas_value = "low polyreactivity"

[[record]]
construct_sequence = "QVQLVESGGGLVQAGGSLRLSCAASGSIFHYNAMGWYRQAPGKERELVAAITSGGSTYYADSVKGRFTISRDNAKKTVYLQMNSLKPEDTAVYYCATVFYRTRYVPYGYWGQGTQVTVSS"
meas_value = "low polyreactivity"


Please find the next sequence below.
query: Answer with reported polyreactivity (PSR sort gate) of QVQHVESGGCLFQAGGILRLSCAASGIIFTYYDMGWYRQAPGKERELVAGIDYSGTSTYYADSVKGRFTISRDNAKNTVYLQMNSLKPEDTAVYYCAAVPVWVVYFSGEYYYWGQGTQVTVSS
result: high polyreactivity
